measured_on: Adenosine receptor A1 (Bos taurus)
procedure_details: NVS_GPCR_bAdoR_NonSelective: NovaScreen (NVS) G Protein-Coupled Receptor Assay for bovine Adenosine Receptor (AdoR), Non-selective Binding (AID 2283244)
Results filed as inconclusive are left out. Calls of active or inactive are those of the source. How the source made its calls: active means hit-call score of the fitted dose curve at least 0.9, where 1 is the maximum; inconclusive means response in the unintended direction; inactive means score below 0.9.
Can you answer with just one of these options? active, inactive

> print(dat)
                            molecule.smiles  assigned.class
1  NS(=O)(=O)C(F)(F)C(F)(F)C(F)(F)C(F)(F)C(F)(F)C(F)(F)C(F)(F)C(F)(F)F          active
2  O=C(O)C(F)(F)C(F)(F)C(F)(F)C(F)(F)C(F)(F)C(F)(F)C(F)(F)C(F)(F)C(F)(F)F        inactive

Please let me know the test result on file for `CCNc1nc(NC(C)C)nc(SC)n1` . active

Please let me know the test result on file for `Cc1ccccc1O` . inactive

Please let me know the test result on file for `Oc1c(Cl)c(Cl)c(Cl)c(Cl)c1Cl` . inactive
